These entries and their values trace back to ChEMBL document CHEMBL1141482.

Organism: Homo sapiens
Run Description: Selectivity for human A2B receptor over human A3 receptor
Lab note: compare Ratio Ki with 30, writing t if less and f if equal or more.

Check out these entries, answers already filled in.
chem_smiles=CCCn1c(=O)c2[nH]c(-c3cnn(Cc4cc(-c5ccccc5)on4)c3)nc2n(CCC)c1=O group=f
chem_smiles=CCCCn1c(=O)[nH]c2nc(-c3cnn(Cc4cccc(F)c4)c3)[nH]c2c1=O group=t
chem_smiles=CCCn1c(=O)[nH]c2nc(-c3cnn(Cc4cccc(F)c4)c3)[nH]c2c1=O group=t
chem_smiles=CCCn1c(=O)[nH]c2nc(-c3cnn(Cc4noc(-c5ccccc5)n4)c3)[nH]c2c1=O group=f
chem_smiles=CCCn1c(=O)[nH]c2nc(-c3cnn(Cc4cccc(C(F)(F)F)c4)c3)[nH]c2c1=O group=f
chem_smiles=CCCCn1c(=O)[nH]c2nc(-c3cnn(Cc4noc(-c5ccc(Cl)cc5)n4)c3)[nH]c2c1=O group=f
chem_smiles=O=c1[nH]c2nc(-c3cnn(Cc4noc(-c5ccc(C(F)(F)F)cc5)n4)c3)[nH]c2c(=O)n1CC1CC1 group=f
chem_smiles=CCCn1c(=O)[nH]c2nc(-c3cnn(Cc4cc(-c5ccccc5)on4)c3)[nH]c2c1=O group=f

Query: Confirm or reject: Ratio Ki of "CCCn1c(=O)c2[nH]c(-c3cnn(Cc4ccccc4)c3)nc2n(CCC)c1=O" lies strictly below 30
Result: t

Query: Confirm or reject: Ratio Ki of "CCCn1c(=O)c2[nH]c(-c3cnn(Cc4cccc(C(F)(F)F)c4)c3)nc2n(CCC)c1=O" lies strictly below 30
Result: t

Query: Confirm or reject: Ratio Ki of "CCCn1c(=O)c2[nH]c(-c3cnn(Cc4cccc(F)c4)c3)nc2n(CCC)c1=O" lies strictly below 30
Result: t

###

Target sequence: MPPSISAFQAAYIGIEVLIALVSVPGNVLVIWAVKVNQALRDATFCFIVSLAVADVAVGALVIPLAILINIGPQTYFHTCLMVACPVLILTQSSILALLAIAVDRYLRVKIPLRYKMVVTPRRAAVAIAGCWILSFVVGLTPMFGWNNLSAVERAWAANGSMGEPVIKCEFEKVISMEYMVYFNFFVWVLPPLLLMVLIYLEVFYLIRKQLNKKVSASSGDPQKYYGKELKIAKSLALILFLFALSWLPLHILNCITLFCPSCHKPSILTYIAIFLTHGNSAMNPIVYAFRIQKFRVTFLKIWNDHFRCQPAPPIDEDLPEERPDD
pKi: −log10 of the molar value.
Metric: pKi

The following molecules have reported results that may help.
chem_smiles=CCCn1c(=O)[nH]c2nc(-c3cnn(Cc4noc(-c5ccccc5)n4)c3)[nH]c2c1=O metric=pKi assay_result=5.46
chem_smiles=CCCn1c(=O)[nH]c2nc(-c3cnn(Cc4noc(-c5ccc(C(F)(F)F)cc5)n4)c3)[nH]c2c1=O metric=pKi assay_result=5.85
chem_smiles=O=c1[nH]c2nc(-c3cnn(Cc4cccc(C(F)(F)F)c4)c3)[nH]c2c(=O)n1CC1CC1 metric=pKi assay_result="< 5.22"
chem_smiles=CCCn1c(=O)c2[nH]c(-c3cnn(Cc4cccc(C(F)(F)F)c4)c3)nc2n(CCC)c1=O metric=pKi assay_result=6.80
chem_smiles=CC(C)Cn1c(=O)[nH]c2nc(-c3cnn(Cc4cccc(C(F)(F)F)c4)c3)[nH]c2c1=O metric=pKi assay_result="< 5.22"

Query: Provide pKi value for the following molecule: "CCn1c(=O)[nH]c2nc(-c3cnn(Cc4cccc(C(F)(F)F)c4)c3)[nH]c2c1=O"
Result: < 5.22

Query: Provide pKi value for the following molecule: "O=c1[nH]c2nc(-c3cnn(Cc4noc(-c5ccc(Cl)cc5)n4)c3)[nH]c2c(=O)n1CC1CC1"
Result: < 5.22

Query: Provide pKi value for the following molecule: "CCCn1c(=O)[nH]c2nc(-c3cnn(Cc4noc(-c5ccc(Cl)cc5)n4)c3)[nH]c2c1=O"
Result: < 5.22

Query: Provide pKi value for the following molecule: "CCCCn1c(=O)[nH]c2nc(-c3cnn(Cc4cccc(C(F)(F)F)c4)c3)[nH]c2c1=O"
Result: < 5.22

Query: Provide pKi value for the following molecule: "CC(C)Cn1c(=O)[nH]c2nc(-c3cnn(Cc4cc(-c5ccccc5)on4)c3)[nH]c2c1=O"
Result: < 5.22
